Target: butyrylcholine esterase (BuChE) (Mus musculus, UniProt Q03311)
Construct: brain homogenate and serum of mouse were used as choline esterase enzyme sources; from tissue; host or cells: mouse serum
Sequence (Q03311 30-603): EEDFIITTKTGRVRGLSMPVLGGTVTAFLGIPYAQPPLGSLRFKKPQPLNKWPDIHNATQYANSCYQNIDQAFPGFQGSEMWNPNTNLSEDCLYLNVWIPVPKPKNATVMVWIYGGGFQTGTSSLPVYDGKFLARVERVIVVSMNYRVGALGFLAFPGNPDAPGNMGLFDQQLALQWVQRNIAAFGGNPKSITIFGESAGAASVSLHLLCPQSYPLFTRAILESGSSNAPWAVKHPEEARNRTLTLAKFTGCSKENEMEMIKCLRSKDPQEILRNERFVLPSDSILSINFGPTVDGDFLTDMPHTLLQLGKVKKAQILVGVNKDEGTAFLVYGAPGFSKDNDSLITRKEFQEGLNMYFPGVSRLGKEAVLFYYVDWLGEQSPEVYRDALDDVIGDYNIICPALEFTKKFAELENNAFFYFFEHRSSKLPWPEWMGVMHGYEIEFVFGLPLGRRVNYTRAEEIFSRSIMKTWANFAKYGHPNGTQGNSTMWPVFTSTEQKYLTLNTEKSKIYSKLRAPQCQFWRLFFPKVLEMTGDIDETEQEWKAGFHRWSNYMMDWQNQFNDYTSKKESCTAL
Assay: In vitro assay for choline esterase inhibition (Ellman method), butyrylthiocholine substrate, mouse serum
Format: biochemical
Conditions: selectivity for BuChE inhibition: IC50 (AchE)/IC50 (BuChE)
Description: For measurement of esterase activity, brain homogenate and serum of mouse were used as choline esterase enzyme sources, and the method of Ellman et. al (Biochemical pharmacology 7: 88-95 1961) were referred. […] After incubation, thiocholine was produced by enzyme reaction in the mixture, and then, the yellow product was formed by the reaction of thiocholine and DTNB. […] And the selectivity for BuChE inhibition of each compound was calculated by the ratio: IC50 (AchE)/IC50 (BuChE).
Outcome: 1 (yes) for Ratio AChE/BuChE of at least 80; 0 (no) for anything lower.

As a guide, the following entries are already answered.
{"compound": "CN(CC1CCOCC1)C(=O)Oc1ccc2c(c1)C(C)(C)CN2Cc1ccncc1", "assigned_label": "1 (yes)"}
{"compound": "CCCCCCNC(=O)Oc1ccc2c(c1)CCN2Cc1ccccn1", "assigned_label": "0 (no)"}

Is reported Ratio AChE/BuChE greater than or equal to 80 here: O=C(NCCc1ccc(Cl)cc1Cl)Oc1ccc2c(c1)CCN2Cc1ccccc1
1 (yes)

In plain terms: is recorded Ratio AChE/BuChE at least 80 for CN(C)CC(C)(C)CNC(=O)Oc1ccc2c(c1)CCN2Cc1ccccc1 ?
1 (yes)

hey, is Ratio AChE/BuChE for this one >= 80? O=C(NCCc1cccnc1)Oc1ccc2c(c1)CCN2Cc1ccccc1
1 (yes)

Is Ratio AChE/BuChE at least 80? Consider C[C@H](NC(=O)Oc1ccc2c(c1)CCN2Cc1ccccc1)c1ccccc1
1 (yes)

Please tell me: is the compound O=C(NC1Cc2ccccc2C1)Oc1ccc2c(c1)CCN2Cc1ccccc1 [Example 44, 1-benzylindolin-5-yl 2-indanylcarbamate] at or over 80 in terms of Ratio AChE/BuChE?
1 (yes)

Check if Ratio AChE/BuChE >= 80 (inclusive). Item: O=C(NCC1CCCCC1)Oc1ccc2c(c1)CCN2Cc1ccccn1
1 (yes)

Entry Cc1ccc(C(C)NC(=O)Oc2ccc3c(c2)CCN3Cc2ccccc2)cc1 (stereo not drawn) : is its Ratio AChE/BuChE no less than 80?
1 (yes)

Is reported Ratio AChE/BuChE greater than or equal to 80 here: C=C(C)CNC(=O)Oc1ccc2c(c1)CCN2Cc1ccccc1
1 (yes)

Identify whether the reported Ratio AChE/BuChE of the following compound is 80 or greater: CC(C)c1ccc(NC(=O)Oc2ccc3c(c2)CCN3Cc2ccncc2)cc1
1 (yes)

Identify whether the reported Ratio AChE/BuChE of the following compound is 80 or greater: CC(C)c1ccc(NC(=O)Oc2ccc3c(c2)C(C)(C)CN3Cc2ccccc2)cc1
1 (yes)

---

Molecular target: butyrylcholine esterase (BuChE) (Mus musculus)
Construct: brain homogenate and serum of mouse were used as choline esterase enzyme sources; from tissue; host or cells: mouse serum
Experiment: In vitro assay for choline esterase inhibition (Ellman method), butyrylthiocholine substrate, mouse serum
Format: biochemical
Conditions: selectivity for BuChE inhibition: IC50 (AchE)/IC50 (BuChE)
assay_metric: Ratio AChE/BuChE
Could you respond with only the numeric value?

Take a look at these entries with their results.
{"compound": "O=C(NCCc1ccccc1)Oc1ccc2c(c1)CCN2Cc1ccccc1 [Example 16, 1-benzylindolin-5-yl phenethylcarbamate]", "readout_number": 230}
{"compound": "Cc1ccc(CNC(=O)Oc2ccc3c(c2)CCN3Cc2ccccc2)cc1 [Example 99]", "readout_number": 670}
{"compound": "O=C(NCC1CCCO1)Oc1ccc2c(c1)CCN2Cc1ccccc1 (centres unmarked) [Example 51]", "readout_number": 1100}

Okay, next one:
Param item = O=C(NC1CCCCC1)Oc1ccc2c(c1)CCN2Cc1ccccn1 [Example 149] ; retrieve measured Ratio AChE/BuChE.
38

---

Target: acetylcholine esterase (AChE) (Mus musculus)
Construct: brain homogenate and serum of mouse were used as choline esterase enzyme sources; from tissue; host or cells: mouse brain homogenate
Sequence (P21836 32-614): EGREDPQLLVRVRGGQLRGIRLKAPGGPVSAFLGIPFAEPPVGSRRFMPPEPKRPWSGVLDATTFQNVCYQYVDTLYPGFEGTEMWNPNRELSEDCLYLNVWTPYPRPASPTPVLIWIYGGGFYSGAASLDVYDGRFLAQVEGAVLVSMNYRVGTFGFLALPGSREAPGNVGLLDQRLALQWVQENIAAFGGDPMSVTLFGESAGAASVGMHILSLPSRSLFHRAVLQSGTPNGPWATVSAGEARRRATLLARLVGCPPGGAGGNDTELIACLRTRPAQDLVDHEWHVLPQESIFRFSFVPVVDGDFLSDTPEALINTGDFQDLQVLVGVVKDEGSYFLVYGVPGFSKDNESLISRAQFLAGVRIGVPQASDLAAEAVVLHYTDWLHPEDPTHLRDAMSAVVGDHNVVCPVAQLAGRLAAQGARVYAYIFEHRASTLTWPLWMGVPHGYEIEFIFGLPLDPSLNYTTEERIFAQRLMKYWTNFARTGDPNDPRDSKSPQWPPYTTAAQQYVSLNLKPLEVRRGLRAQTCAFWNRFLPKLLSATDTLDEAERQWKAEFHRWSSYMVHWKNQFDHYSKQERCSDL
Experiment: In vitro assay for choline esterase inhibition (Ellman method), acetylthiocholine substrate, mouse brain homogenate
Type: biochemical
Conditions: mouse brain homogenate, acetylthiocholine, absorbance at 415 nm; read-out: AChE inhibitory activity IC50
Below, each of the compounds is paired with its reported IC50 value.
Your answer is read as µM, so omit the unit and give the number.

In the examples that follow, each entry is paired with its recorded IC50.
{"compound": "O=C(NCc1cccs1)Oc1ccc2c(c1)CCN2Cc1ccccc1", "assay_metric": "IC50", "measurement_units": "µM", "readout_number": 1.6}
{"compound": "COc1ccc(CNC(=O)Oc2ccc3c(c2)CCN3Cc2ccccc2)cc1", "assay_metric": "IC50", "measurement_units": "µM", "readout_number": 4.1}
{"compound": "O=C(Nc1ccc2c(c1)CCO2)Oc1ccc2c(c1)CCN2Cc1ccccc1", "assay_metric": "IC50", "measurement_units": "µM", "readout_number": 2.7}
{"compound": "Cc1ccc(CNC(=O)Oc2ccc3c(c2)CCN3Cc2ccccc2)cc1", "assay_metric": "IC50", "measurement_units": "µM", "readout_number": 14}
{"compound": "O=C(NCC1CCCO1)Oc1ccc2c(c1)CCN2Cc1ccccc1 (stereo not drawn)", "assay_metric": "IC50", "measurement_units": "µM", "readout_number": 18}

// returns reported IC50 for input O=C(NCCc1cccnc1)Oc1ccc2c(c1)CCN2Cc1ccccc1
8.5

---

Target: butyrylcholine esterase (BuChE) (Mus musculus, UniProt Q03311)
Construct: brain homogenate and serum of mouse were used as choline esterase enzyme sources; from tissue; host or cells: mouse serum
Assay: In vitro assay for choline esterase inhibition (Ellman method), butyrylthiocholine substrate, mouse serum
Type: biochemical
// values below are reported IC50
Kindly provide the numeric value in µM only, without the unit symbol.

{"compound": "CN(CC1CCOCC1)C(=O)Oc1ccc2c(c1)C(C)(C)CN2Cc1ccccc1", "IC50 / µM": 0.00036}
{"compound": "CN(C)CCCNC(=O)Oc1ccc2c(c1)CCN2Cc1ccccc1", "IC50 / µM": 0.18}
{"compound": "O=C(Nc1ccc2c(c1)CCC2)Oc1ccc2c(c1)CCN2Cc1ccccc1 [Example 85, 1-benzylindolin-5-yl 5-indanylcarbamate]", "IC50 / µM": 0.42}
{"compound": "O=C(NC1CCCCC1)Oc1ccc2c(c1)CCN2Cc1ccccc1 [Example 20, 1-benzylindolin-5-yl cyclohexylcarbamate]", "IC50 / µM": 0.067}

Endpoint output: IC50 of O=C(NC1CCCCCCC1)Oc1ccc2c(c1)CCN2Cc1ccccc1 [Example 45, 1-benzylindolin-5-yl cyclooctylcarbamate] . Value?
0.021

So what does the record say about IC50 for CC(C)c1ccc(NC(=O)Oc2ccc3c(c2)CCN3Cc2ccncc2)cc1 ?
1.1

---

List of Ratio AChE/BuChE values.
Molecular target: butyrylcholine esterase (BuChE) (Mus musculus, UniProt Q03311)
Construct: brain homogenate and serum of mouse were used as choline esterase enzyme sources; from tissue; host or cells: mouse serum
Assay: In vitro assay for choline esterase inhibition (Ellman method), butyrylthiocholine substrate, mouse serum
Format: biochemical
Settings: selectivity for BuChE inhibition: IC50 (AchE)/IC50 (BuChE)

Study these solved cases before continuing.
{"compound": "O=C(NCc1ccco1)Oc1ccc2c(c1)CCN2Cc1ccccc1 [Example 18, 1-benzylindolin-5-yl furfurylcarbamate]", "Ratio AChE/BuChE": 47}
{"compound": "CC(C)(C)CNC(=O)Oc1ccc2c(c1)CCN2Cc1ccccc1 [Example 153]", "Ratio AChE/BuChE": ">1100"}
{"compound": "O=C(Nc1ccc2c(c1)OCCO2)Oc1ccc2c(c1)CCN2Cc1ccccc1 [Example 11]", "Ratio AChE/BuChE": ">590"}
{"compound": "COc1cccc(CNC(=O)Oc2ccc3c(c2)CCN3Cc2ccccc2)c1 [Example 100]", "Ratio AChE/BuChE": 220}
{"compound": "CC(C)CNC(=O)Oc1ccc2c(c1)CCN2Cc1ccccc1 [Example 35]", "Ratio AChE/BuChE": 5800}
{"compound": "O=C(NCc1cccs1)Oc1ccc2c(c1)CCN2Cc1ccccc1 [Example 98]", "Ratio AChE/BuChE": 130}
{"compound": "O=C(NC1CC1)Oc1ccc2c(c1)CCN2Cc1ccccc1 [Example 41]", "Ratio AChE/BuChE": 190}
{"compound": "O=C(NCC12CC3CC(CC(C3)C1)C2)Oc1ccc2c(c1)CCN2Cc1ccccc1 [Example 47]", "Ratio AChE/BuChE": ">1200"}

So what's the measured Ratio AChE/BuChE for this one? CN(C)CCCNC(=O)Oc1ccc2c(c1)CCN2Cc1ccccc1 [Example 137]
>560

// returns reported Ratio AChE/BuChE for input O=C(NCCSCc1ccco1)Oc1ccc2c(c1)CCN2Cc1ccccc1 [Example 54]
>6700
